Overview of recorded IC50 for various molecules
target: acid ceramidase (hACR) (Homo sapiens); construct: expressed in transfected cells; cell lysate used; experiment: Acid ceramidase inhibition, biochemical fluorescent assay with cell lysates overexpressing acid ceramidase, substrate Rbm14-12; conditions: cell lysates overexpressing acid ceramidase; 1 hr preincubation at RT; pH 4.5; substrate Rbm14-12 6.3 μM; read-out: hACR IC50

Record excerpt, results attached:
>>> recorded_result("CC1(C)CC(N2CCC(F)(F)CC2)CCN1C(=O)NCCCCc1ccccc1 (stereo not drawn)")
"< 200 nM"
>>> recorded_result("COc1ccc(C2COCC(C)(C)N2C(=O)NCC(C)C)cc1 (stereo not drawn)")
"< 200 nM"
>>> recorded_result("CCCCNC(=O)N1CCC2(CCCCO2)CC1(C)C (stereo not drawn)")
"> 1000 nM"
>>> recorded_result("CC1(C)CCc2ccc(N3CCOCC3)cc2N1C(=O)NCCc1ccccc1")
"> 1000 nM"

Annotate the molecule CCCCCNC(=O)N1C(c2ccc(OC)cc2)COCC1(C)C (stereo not drawn) with its measured IC50.
< 200 nM

Annotate the molecule CC(C)[C@@H]1CN(C2CC2)CCN1C(=O)NCCCCc1ccccc1 with its measured IC50.
200 to 1000 nM

Annotate the molecule CC(C)CCNC(=O)N1CCC(Oc2ccccc2)CC1(C)C (stereo not drawn) with its measured IC50.
200 to 1000 nM

Annotate the molecule CC1(C)COCC(c2ccccc2)N1C(=O)NC1CCCCC1 (stereo not drawn) with its measured IC50.
200 to 1000 nM

Annotate the molecule CC1(C)CC(N2CCCCC2)/C(=C/c2ccccc2)CN1C(=O)NCCc1ccccc1 (stereo not drawn) with its measured IC50.
200 to 1000 nM

---

test: Compound solubility in water; format: physicochemical
endpoint: solubility (µM)

Record excerpt, results attached:
>>> recorded_result("CC1(C)CCc2ccccc2N1C(=O)NCCc1ccccc1 [Example 6]")
3.2
>>> recorded_result("CC1(C)Cc2ccccc2CN1C(=O)NCCc1ccccc1 [Example 22]")
5.7
>>> recorded_result("CC1(C)CCc2c(N3CCOCC3)cccc2N1C(=O)NCCc1ccccc1 [Example 11]")
8.1
>>> recorded_result("CN(C(=O)NCCCC1(C(F)(F)F)CC1)C12CCC(CC1)CC2 [Example 71]")
5.9
>>> recorded_result("CCCCCNC(=O)N1C(c2ccc(OC)cc2)COCC1(C)C (stereo not drawn) [Example 156]")
91

a: CN1CC(N2CC(c3ccc4c(c3)N(C(=O)NCCc3ccccc3)C(C)(C)CC4)C2)C1 [Example 69]
b: CC1(C)c2ccccc2CCN1C(=O)NCCc1ccccc1 [Example 15]
Could you tell me which of these two has the smaller solubility figure? First: a Second: b Respond with the label that goes with your answer.
b

---

experiment: Compound solubility in water; format: physicochemical
endpoint: solubility (µM)

Record excerpt, results attached:
>>> recorded_result("CC1(C)CC(c2ccccn2)CCN1C(=O)NCCCCc1ccccc1 (stereo not shown) [Example 79]")
6.4
>>> recorded_result("Cn1ccnc1-c1ccc2c(c1)N(C(=O)NCCc1ccccc1)C(C)(C)CC2 [Example 12]")
26.6
>>> recorded_result("O=C(NCCc1ccccc1)N1CCCCC12CCCC2 [Example 45]")
6
>>> recorded_result("CN(c1ccccc1)C1CCN(C(=O)NCCCCc2ccccc2)C(C)(C)C1.Cl (stereo not shown) [Example 88]")
0.01
>>> recorded_result("O=C(NCCCc1ccc(F)cc1)N1CCCCC12CCCC2 [Example 58]")
3
>>> recorded_result("CC1(C)COCCN1C(=O)NCCc1ccccc1 [Example 53]")
25.6
>>> recorded_result("C=CCCCCNC(=O)N1CCC2(CCCCO2)CC1(C)C (stereo not shown) [Example 44]")
20.8

A: CC1(C)CC(Oc2ccccc2)CCN1C(=O)NCCCCc1ccccc1 (stereo not shown) [Example 89]
B: COC1CC(C)(C)N(C(=O)NCCc2ccccc2)c2ccccc21 (stereo not shown) [Example 19]
C: CCCCNC(=O)N1CCN(C2CCCN(C)C2)CC1(C)C (stereo not shown) [Example 38]
Put the items in sequence by solubility, from largest down. Form field (ranking): labels in requested order.
C, B, A
(C: 35.8 µM, B: 6.5 µM, A: 0.01 µM)

---

Molecular target: acid ceramidase (hACR) (Homo sapiens, UniProt Q13510)
Construct: expressed in transfected cells; cell lysate used
Sequence (Q13510 143-395 limits assumed): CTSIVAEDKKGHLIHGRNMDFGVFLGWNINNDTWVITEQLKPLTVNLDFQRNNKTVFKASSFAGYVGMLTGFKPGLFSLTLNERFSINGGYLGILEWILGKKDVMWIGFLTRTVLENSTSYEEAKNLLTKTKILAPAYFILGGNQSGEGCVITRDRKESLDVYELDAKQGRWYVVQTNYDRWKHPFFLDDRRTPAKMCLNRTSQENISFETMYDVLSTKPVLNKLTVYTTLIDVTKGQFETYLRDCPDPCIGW
Sequence (Q13510 22-142 limits assumed): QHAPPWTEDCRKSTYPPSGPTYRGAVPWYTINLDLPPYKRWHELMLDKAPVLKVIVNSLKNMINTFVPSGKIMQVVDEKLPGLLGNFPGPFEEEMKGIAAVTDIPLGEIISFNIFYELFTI
Experiment: Acid ceramidase inhibition, biochemical fluorescent assay with cell lysates overexpressing acid ceramidase, substrate Rbm14-12
Details: cell lysates overexpressing acid ceramidase; 1 hr preincubation at RT; pH 4.5; substrate Rbm14-12 6.3 μM; read-out: hACR IC50
pIC50: −log10 of the molar value.
Overview of recorded pIC50 for various compounds

>>> recorded_result("CN1CC(c2ccccc2)N(C(=O)NCCCCc2ccccc2)C(C)(C)C1 (stereo not drawn)")
"> 6.70"
>>> recorded_result("CN1CC(C)(C)N(C(=O)NCCc2ccccc2)c2ccccc21")
"6.00 to 6.70"
>>> recorded_result("CCCCCNC(=O)N1[C@@H]2CC[C@H]1C[C@H](N1CCCCC1)C2")
"< 6.00"
>>> recorded_result("O=C(NCCc1ccccc1)N1CCCCC12CCCC2")
"6.00 to 6.70"
>>> recorded_result("Cn1ccnc1-c1cccc2c1CCC(C)(C)N2C(=O)NCCc1ccccc1")
"< 6.00"

Annotate the compound CC1C(c2ccccc2)CCCN1C(=O)NCCCCc1ccccc1 (mixture of isomers) with its measured pIC50.
6.00 to 6.70

Annotate the compound CCCCNC(=O)N1CCN(C2CCCN(C)C2)CC1(C)C (stereo not drawn) with its measured pIC50.
< 6.00

Annotate the compound CC1(C)COCCN1C(=O)NCCc1ccccc1 with its measured pIC50.
< 6.00

Annotate the compound CCCCCNC(=O)N1C/C(=C\c2ccccc2)C(N2CCCCC2)CC1(C)C (stereo not drawn) with its measured pIC50.
> 6.70

---

Target: acid ceramidase (hACR) (Homo sapiens)
Construct: expressed in transfected cells; cell lysate used
Sequence (Q13510 143-395 limits assumed): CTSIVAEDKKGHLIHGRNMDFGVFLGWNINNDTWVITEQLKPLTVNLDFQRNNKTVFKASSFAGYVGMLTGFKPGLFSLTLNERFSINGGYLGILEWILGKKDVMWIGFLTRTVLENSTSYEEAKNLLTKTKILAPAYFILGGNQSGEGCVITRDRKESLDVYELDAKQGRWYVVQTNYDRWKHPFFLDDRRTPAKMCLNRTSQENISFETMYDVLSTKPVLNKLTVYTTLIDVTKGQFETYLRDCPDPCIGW
Sequence (Q13510 22-142 limits assumed): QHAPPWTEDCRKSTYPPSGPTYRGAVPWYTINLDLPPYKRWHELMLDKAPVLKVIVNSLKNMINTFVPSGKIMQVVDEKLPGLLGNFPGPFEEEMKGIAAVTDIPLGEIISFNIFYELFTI
Test: Acid ceramidase inhibition, biochemical fluorescent assay with cell lysates overexpressing acid ceramidase, substrate Rbm14-12
Description: The ability of exemplary compounds to inhibit acid ceramidase was measured. Cell lysates overexpressing acid ceramidase were used as the enzyme source for compound potency determination in a biochemical fluorescent assay. […] Finally the plate was read with SpectraMax i3 plate reader (Molecular Devices) at ex360 nm and em446 nm. […]
pIC50: −log10 of the molar value.
endpoint: pIC50

Annotate the compound COc1ccc(C2COCC(C)(C)N2C(=O)NCC2CCOCC2)cc1 (stereo not shown) with its measured pIC50.
6.00 to 6.70

---

biological target: acid ceramidase (hACR) (Homo sapiens, UniProt Q13510); construct: expressed in transfected cells; cell lysate used; assay: Acid ceramidase inhibition, biochemical fluorescent assay with cell lysates overexpressing acid ceramidase, substrate Rbm14-12; settings: cell lysates overexpressing acid ceramidase; 1 hr preincubation at RT; pH 4.5; substrate Rbm14-12 6.3 μM; read-out: hACR IC50
pIC50: −log10 of the molar value.
endpoint: pIC50

Annotate the compound CCCCCNC(=O)N1CCN(c2ccccc2)C(=O)C1(C)C [Example 107] with its measured pIC50.
6.00 to 6.70

Annotate the compound CN(C(=O)NCCCC1(C(F)(F)F)CC1)C12CCC(CC1)CC2 [Example 71] with its measured pIC50.
6.00 to 6.70

Annotate the compound COc1cccc2c1N(C(=O)NCCc1ccccc1)C(C)(C)CC2 [Example 68] with its measured pIC50.
> 6.70
